Test system: TAG
protocol_text: TAG lipid buildup inhibition with viability readout – cell-based, panel, Nile Red and DAPI fluorescence, H9c2, dose response (AID 651630);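 further: cells exposed to compound overnight before fixation and staining; hits lower the Nile Red lipid signal and are scored as TAG inhibitors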
experimental_parameters: H9c2 cells, Nile Red TAG fluorescence, oleic acid, mean of runs
Calls of active or inactive are those of the source.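 How the source made its calls: active means lipid-stain IC50 at or below a set limit, with nuclear-stain toxicity IC50 at least five times higher; inactive means the rest.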
Can you answer with just one of these options? y (active), n (inactive)

Reference set (5 entries):
Cc1ccc(NC(=O)c2nc[nH]c2C(=O)NCCCCCCNC(=O)c2[nH]cnc2C(=O)Nc2ccc(C)cc2)cc1 = y
CCC(C)(C)NC(=O)C(c1ccc(C)cc1)N(Cc1ccco1)C(=O)CCC(=O)Nc1nccs1 (centres undefined) = y
C=CCC[C@@H](Cc1ccc(F)cc1)C(=O)OC[C@@H](Cc1c[nH]c2ccccc12)NC(=O)[C@@H](CC=C)CC(=O)N(CCO)Cc1ccccc1 = y
COc1ccc(CC(N)c2csc(NC(=O)NCc3ccccc3)n2)cc1 (centres undefined) = n
COc1ccc(Oc2nc(-c3ccccn3)nc3ccccc23)cc1 = n

[Q] Which outcome did this test record for the compound Cc1cc(NC(=O)CSc2nc(C(C)C)nc3sc4c(c23)CCC(C)C4)no1 (centres undefined) ?
[A] n

[Q] Please indicate how the test categorized `COCCNC(=O)c1cc2c(-c3ccc(Cl)cc3)nn(C)c2s1` .
[A] n

[Q] Please indicate how the test categorized `CC1(C)Cc2c(C#N)c(SCC(=O)c3ccccc3)nc(N3CCOCC3)c2CS1` .
[A] n

[Q] Write down the call the test reported for this compound. Item: `CCOc1c(Cl)cc(/C=C/C(=O)N(CC)CC(=O)NCc2cccs2)cc1OC`
[A] n

[Q] Tell me the recorded outcome of this test for CCCCN(C)C(=O)c1ccc(Nc2nc(C(N)Cc3ccc(C(F)(F)F)cc3)cs2)nc1 (centres undefined) .
[A] n

[Q] Which outcome was assigned to `Cc1nn2c(NCc3ccccn3)c3c(nc2c1-c1ccccc1)CCC3` in this test?
[A] n

[Q] What classification did `CC(=O)c1ccc(-c2cnc3c(NC=O)cc(-c4ccc(C(=O)NC5CC5)cc4)cn23)cc1` end up with in this test?
[A] n

[Q] Tell me the assay call for `COc1cc(/C=C2\Oc3ccc(C#Cc4ccc(O)cc4)cc3C2=O)cc(OC)c1` please.
[A] y

[Q] Query: recorded result category for `COc1ccc(-c2sc3ccc(N4CCOCC4)cc3c2C#CC(C)(C)O)cc1` in this test
[A] n

[Q] Look up the recorded call for CCN(C(=O)COC(=O)c1cc(-c2ccccc2)nc2c1c(C)nn2-c1ccc(C)cc1)C1CCS(=O)(=O)C1 (centres undefined) in this test.
[A] n

[Q] What is the recorded call for this compound in the test? CC(CC(=O)Nc1ccc2c(c1)c(=O)n(C)n2-c1ccc2ccccc2c1)C(F)(F)F (centres undefined)
[A] n

[Q] Could you kindly confirm the outcome this assay logged for `COc1cc(C#Cc2c(-c3cncn3C)n(C)c3ccc(-c4cc(OC)c(OC)c(OC)c4)cc23)cc(OC)c1` ?
[A] n

[Q] Hi, do you know how COc1cc(C(CCN2CCCCC2)c2c(OC)cc(OC)c3c(-c4ccccc4)cc(=O)oc23)cc(OC)c1OC (centres undefined) came out in this test?
[A] n

[Q] Called result for `Cc1ccc(-c2nn(-c3ccccc3)cc2CSC(=N)N)cc1`
[A] y

[Q] What did the test return for `CN(Cc1ccc(Cl)cc1)C(=O)CCl` ?
[A] n

[Q] Hey, what did the test say about `COc1cc(C)c2sc3ccccc3c(=O)c2c1NCCN(C)C` ?
[A] y

[Q] Record request — test call for `C[C@@]12C(=O)Nc3ccc(Br)cc3C(=O)N1[C@H]1c3cc(Br)ccc3OC[C@@H]1[C@@H]2c1ccccc1`
[A] y

[Q] Which outcome was entered for the compound O=C(c1cnn2c1NC(c1ccc(Br)cc1)CC2C(F)(F)F)N1CCN(C23CC4CC(CC(C4)C2)C3)CC1 (centres undefined) in this test?
[A] n

[Q] Name the outcome recorded for `CCCCN1C(=O)/C(=C/C=C2/C=Cc3ccccc3N2CC)SC1=S` in the assay.
[A] y

[Q] Could you kindly confirm the outcome this assay logged for `C/C(=N\Nc1ccc(Cl)nn1)c1ccccc1O` ?
[A] n

[Q] Can you look up the reported call for `N=c1n(CCO)c2ccccc2n1CCOc1ccc(Cl)cc1Cl` for me?
[A] n

[Q] Dear all, I need the recorded test outcome for `Nc1ccc(C#Cc2c(-c3ccsc3)oc3ccc(N4CCOCC4)cc23)cc1` , thank you.
[A] y

[Q] Answer briefly: the call reported for Cc1noc(C)c1-c1ccc2ncnc(NCC3CCCCN3C)c2c1 (centres undefined) in this assay.
[A] n

[Q] # lookup: test call for `Cc1cccc(-c2ccc3[nH]c4c(c3c2)CCN2C[C@@H]([C@H](C)OC(=O)Nc3ccccc3C)[C@@H](N(C)C(=O)Nc3ccccc3C)C[C@@H]42)c1`
[A] n
